tested on: PCSK9 gene; test: PCSK9 gRNA/SpCas9 editing in primary cynomolgus hepatocytes (Tables 2, 22); format: cell-based, cynomolgus monkey; settings: SpCas9 mRNA MS002, 625 ng/test article/mL, rep1
In the oligonucleotide strings, read from the 5' end, every base follows the letter of its sugar. An asterisk marks phosphorothioate; unmarked linkages are phosphodiester. Other units and linkages are bracketed, terminal groups are in braces. A string of capitals states the bases alone. m = 2'-O-methyl; r = 2'-OH (RNA)
Listed below: Cynomolgus Primary Hepatocytes-% Editing values for each entry.
Give your result in % as a bare value.

GA408 (nucleic acid) guide: mU*mC*mA*rGrCrUrCrCrArGrGrCrGrGrUrCrCrUrGrGmGrUrUrUrUrArGmAmGmCmUmAmGmAmAmAmUmAmGmCmAmArGrUrUmArAmArAmUrAmAmGmGmCmUmArGrUmCmCrGrUrUrAmUmCrArAmCmUmUmGmAmAmAmAmAmGmUmGrGmCmAmCmCmGmAmGmUmCmGmGmUmGmCmU*mU*mU*mUmUrUmU: 36.7
GA397 (nucleic acid) guide: mU*mC*mA*rGrCrUrCrCrArGrGrCrGrGrUrCrCrUrGrGmGrUrUrUrUrArGmAmGmCmUmArGmAmAmAmUmAmGmCmAmArGrUrUmArAmArAmUrAmAmGmGmCmUmArGrUmCmCrGrUrU*rAmUmCrArAmCmUmUrGmAmAmAmAmAmGmUmGrGmCmAmCmCmGmAmGmUmCmGmGmUmGmCmU*mU*mU*mUmUmUmU: 40.72

Cynomolgus Primary Hepatocytes-% Editing for GA398 (nucleic acid) guide: mU*mC*mA*rGrCrUrCrCrArGrGrCrGrGrUrCrCrUrGrGmGrUrUrUrUrArGmAmGmCmUmAmGmAmAmAmUmAmGmCmAmArGrUrUmArAmArAmUrAmAmGmGmCmUmArGrUrCmCrGrUrUrAmUmCrArAmCmUmUmGmAmAmAmAmAmGmUmGmGmCmAmCmCmGmAmGmUmCmGmGmUmGmCmU*mU*mU*mUmUmUmU is 39.09
